Origin of values: patent US20210230294A1

List of koff values.
Target: T1, recombinant human CD73 (SEQ ID NO:70) (human, UniProt P21589 27-549)
T1 construct: Soluble recombinant protein in normal SPR running buffer (open conformation), the soluble enzyme assay and HDX-MS; SPR stock bought from BPS Bioscience; also called rhuCD73; CD73 in the open conformation
T1 sequence: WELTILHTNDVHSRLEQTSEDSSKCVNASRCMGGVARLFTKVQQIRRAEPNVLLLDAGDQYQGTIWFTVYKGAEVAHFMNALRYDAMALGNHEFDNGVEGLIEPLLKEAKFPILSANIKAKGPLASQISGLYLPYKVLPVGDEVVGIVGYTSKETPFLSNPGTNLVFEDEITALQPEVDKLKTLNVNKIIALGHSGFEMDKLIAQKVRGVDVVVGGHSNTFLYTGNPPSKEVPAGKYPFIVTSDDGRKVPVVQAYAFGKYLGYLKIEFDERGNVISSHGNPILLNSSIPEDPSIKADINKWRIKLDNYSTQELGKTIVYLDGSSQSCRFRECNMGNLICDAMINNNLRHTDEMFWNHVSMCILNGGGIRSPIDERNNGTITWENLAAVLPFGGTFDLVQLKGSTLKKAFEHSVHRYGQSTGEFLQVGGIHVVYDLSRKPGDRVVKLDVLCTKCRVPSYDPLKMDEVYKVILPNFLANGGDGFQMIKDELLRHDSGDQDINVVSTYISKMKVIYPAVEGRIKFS
Test: SPR (Biacore 8K), antibody captured on anti-human Fc, CD73 as analyte, open conformation
MEASURED_ENDPOINT: koff

BINDER	RESULT
CL25_hu_8-5 (antibody, V domains shown, Humanized CL25 antibody) VH: QVQLVQSGAEVKKPGASVKVSCKASGYTFTSYGLSWVRQATGQGLEWMGEIYPGSGNTYYNEKFKGRVTMTRNTSISTAYMELSSLRSEDTAVYYCARYDYLGSSYGFDYWGAGTTVTVSS VL: DIVMTQSPDSLAVSLGERATINCKASQDVSTAVAWYQQKPGQPPKLLIYSASYRYSGVPDRFSGSGSGTDFTLTISSLQAEDVAVYYCQQHYNTPYTFGGGTKLEIK	0.000949 s⁻¹
CL25_hu_8-4 (antibody, V domains shown, Humanized CL25 antibody; captured by anti-human Fc in SPR) VH: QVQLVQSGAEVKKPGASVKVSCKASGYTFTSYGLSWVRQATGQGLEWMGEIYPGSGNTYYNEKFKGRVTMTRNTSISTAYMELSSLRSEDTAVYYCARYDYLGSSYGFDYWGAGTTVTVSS VL: DIQMTQSPSSLSASVGDRVTITCKASQDVSTAVAWYQQKPGKAPKLLLYSASYRYSGVPSRFSGSGSGTDYTLTISSLQPEDFATYYCQQHYNTPYTFGGGTKLEIK	0.00176 s⁻¹
CL25_hu_11-6 (antibody, V domains shown, Humanized CL25 antibody) VH: QVQLVQSGAEVKKPGASVKVSCKASGYTFTSYGLSWVRQATGQGLEWMGEIYPGSGNTYYNEKFKGRVTMTANTSISTAYMELSSLRSEDTAVYYCARYDYLGSSYGFDYWGAGTTVTVSS VL: AIRMTQSPSSFSASTGDRVTITCKASQDVSTAVAWYQQKPGKAPKLLIYSASYRYSGVPSRFSGSGSGTDFTLTISCLQSEDFATYYCQQHYNTPYTFGGGTKLEIK	0.00101 s⁻¹
